Origin of measurements: the Human Domainome abundance scans (Beltran et al. 2025)

Listed here: items and their measured abundance fitness.
B1: WW domain-containing transcription regulator protein 1, residues 116 to 162; numbered along this chain, Q9GZV5 (parent)
chain: QSYDVTDELPLPPGWEMTFTATGQRYFLNHIEKITTWQDPRKAMNQP

Variants of: B1
METHOD_DESCRIPTION: abundance fitness (aPCA) (normalised: wild type 0, dead -1); higher = more abundant; growth selection in yeast, the domain comes from the species named
MEASUREMENT_SETUP: Homo sapiens
MEASURED_PROPERTY: abundance fitness

>>> recorded_measurement("Q38K")
-0.037
>>> recorded_measurement("Y26K")
-0.506
>>> recorded_measurement("T36M")
-0.532
>>> recorded_measurement("K33T")
-0.483
>>> recorded_measurement("G23I")
-0.917
>>> recorded_measurement("Y26S")
-0.54
>>> recorded_measurement("L28I")
0.044
>>> recorded_measurement("H30C")
-0.333
>>> recorded_measurement("D4F")
-0.152
>>> recorded_measurement("Q24K")
-0.14
>>> recorded_measurement("D39I")
-0.469
>>> recorded_measurement("Q24A")
-0.124
>>> recorded_measurement("I34E")
-0.265
>>> recorded_measurement("Q38T")
-0.095
>>> recorded_measurement("A43V")
-0.025
>>> recorded_measurement("P10E")
-0.058
>>> recorded_measurement("N29L")
-1.01
>>> recorded_measurement("P47T")
-0.148
>>> recorded_measurement("Q1R")
-0.365
>>> recorded_measurement("W15G")
-0.636
>>> recorded_measurement("M44V")
-0.045
>>> recorded_measurement("D7N")
-0.041
>>> recorded_measurement("I34M")
-0.15
>>> recorded_measurement("W15Y")
-0.351
>>> recorded_measurement("W37R")
-0.392
>>> recorded_measurement("T18M")
-0.056
>>> recorded_measurement("Q46C")
-0.021
>>> recorded_measurement("P12E")
-0.601
>>> recorded_measurement("N45L")
-0.118
>>> recorded_measurement("L11T")
-0.548
>>> recorded_measurement("N29W")
-0.965
>>> recorded_measurement("V5T")
0.011
>>> recorded_measurement("W37S")
-0.324
>>> recorded_measurement("G14C")
-0.475
>>> recorded_measurement("K33S")
-0.177
>>> recorded_measurement("T18Y")
-0.086
>>> recorded_measurement("N29F")
-1.01
>>> recorded_measurement("D39Q")
-0.911
>>> recorded_measurement("D4K")
-0.014
>>> recorded_measurement("K42S")
-0.203
>>> recorded_measurement("P40K")
-0.834
>>> recorded_measurement("R41C")
-0.689
>>> recorded_measurement("T20L")
-0.519
>>> recorded_measurement("E8S")
-0.071
>>> recorded_measurement("P47G")
-0.677
>>> recorded_measurement("T6H")
-0.352
>>> recorded_measurement("Y26G")
-0.661
>>> recorded_measurement("R25D")
-0.934
>>> recorded_measurement("Q24R")
-0.222
>>> recorded_measurement("F19P")
-0.597
>>> recorded_measurement("A43E")
-0.018
>>> recorded_measurement("T22W")
-0.357
>>> recorded_measurement("S2K")
-0.074
>>> recorded_measurement("E8D")
-0.084
>>> recorded_measurement("K42W")
-0.304
>>> recorded_measurement("T18L")
-0.047
>>> recorded_measurement("K42H")
-0.061
>>> recorded_measurement("P12K")
-0.782
>>> recorded_measurement("K33M")
-0.284
>>> recorded_measurement("M44T")
-0.028
>>> recorded_measurement("T36N")
-0.754
>>> recorded_measurement("T18A")
0.023
>>> recorded_measurement("W15R")
-0.625
>>> recorded_measurement("S2C")
-0.192
>>> recorded_measurement("I31F")
-0.14
>>> recorded_measurement("Q38C")
-0.085
>>> recorded_measurement("L11G")
-0.731
>>> recorded_measurement("K33L")
-0.558
>>> recorded_measurement("I34Y")
-0.172
>>> recorded_measurement("R41G")
-0.628
>>> recorded_measurement("T18W")
-0.245
>>> recorded_measurement("G14M")
-0.505
